Reported IC50 values follow for various molecules
target: TRPC5 (Homo sapiens, UniProt Q9UL62); construct: expressed in transfected cells; assay: TRPC5 activity assay (FLIPR calcium fluorescence, HEK-TREx hTRPC5 cells); format: cell-based; details: HEK-TREx hTRPC5 cells, FLIPR, 30 μM Riluzole stimulation; read-out: TRPC5
Sequence (Q9UL62 whole entry): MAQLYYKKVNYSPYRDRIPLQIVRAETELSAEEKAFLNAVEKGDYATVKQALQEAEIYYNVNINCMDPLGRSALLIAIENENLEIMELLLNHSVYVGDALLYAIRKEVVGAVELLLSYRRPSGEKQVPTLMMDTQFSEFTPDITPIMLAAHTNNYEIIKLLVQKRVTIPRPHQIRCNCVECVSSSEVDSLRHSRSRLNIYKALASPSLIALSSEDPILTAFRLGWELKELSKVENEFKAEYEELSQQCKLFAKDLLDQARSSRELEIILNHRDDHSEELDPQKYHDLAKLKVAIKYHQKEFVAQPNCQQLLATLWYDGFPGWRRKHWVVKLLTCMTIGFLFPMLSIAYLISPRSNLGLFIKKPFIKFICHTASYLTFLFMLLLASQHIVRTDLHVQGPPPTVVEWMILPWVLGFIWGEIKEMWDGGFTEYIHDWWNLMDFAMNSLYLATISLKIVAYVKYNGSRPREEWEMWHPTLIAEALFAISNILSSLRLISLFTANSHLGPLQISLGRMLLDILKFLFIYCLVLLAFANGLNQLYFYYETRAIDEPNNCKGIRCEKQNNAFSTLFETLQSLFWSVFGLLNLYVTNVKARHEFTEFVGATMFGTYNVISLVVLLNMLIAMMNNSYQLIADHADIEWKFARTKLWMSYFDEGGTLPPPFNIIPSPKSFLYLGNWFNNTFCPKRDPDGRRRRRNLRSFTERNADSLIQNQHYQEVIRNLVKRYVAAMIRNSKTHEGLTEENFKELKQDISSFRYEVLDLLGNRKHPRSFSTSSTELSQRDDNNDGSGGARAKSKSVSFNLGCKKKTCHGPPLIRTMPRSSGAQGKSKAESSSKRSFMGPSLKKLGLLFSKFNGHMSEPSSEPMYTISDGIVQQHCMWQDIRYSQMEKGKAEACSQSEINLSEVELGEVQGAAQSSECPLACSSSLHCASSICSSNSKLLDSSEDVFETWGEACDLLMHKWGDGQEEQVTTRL

[Q] Quick check: IC50 on TRPC5 (Homo sapiens, UniProt Q9UL62), item `O=c1[nH]ncc(N2CCc3c(ncnc3Oc3cc(F)ccc3C(F)(F)F)C2)c1Cl` ?
[A] < 0.05 µM

---

target: TRPC5 (Homo sapiens, UniProt Q9UL62); construct: expressed in transfected cells; assay: TRPC5 activity assay (FLIPR calcium fluorescence, HEK-TREx hTRPC5 cells); type: cell-based; conditions: Table 7, HEK-TREx hTRPC5; read-out: TRPC5-FLIPR IC50
pIC50: −log10 of the molar value.
ATTRIBUTE_MEASURED: pIC50

1) NC(=O)c1nn(Cc2ccccc2C(F)(F)F)c2c1CN(c1cn[nH]c(=O)c1Cl)CC2 [OP]: 6.00 to 11.00
2) CCc1ncccc1[C@@H](C)n1nnc2c1CCN(c1cn[nH]c(=O)c1Cl)C2 [MS]: 6.00 to 11.00

// below: pIC50 requested for another compound
[Q] Tell me the measured pIC50 of C[C@@H]1Cc2c(nnn2[C@H](C)c2ccccc2C(F)(F)F)CN1c1cn[nH]c(=O)c1Cl [MX] , please.
[A] 6.00 to 11.00
